Source of measurements: patent US11713305B2

- target-of-assay: HSA (Homo sapiens)
- Construct: purchased Sigma-Aldrich
- Sequence (P02768 25-609): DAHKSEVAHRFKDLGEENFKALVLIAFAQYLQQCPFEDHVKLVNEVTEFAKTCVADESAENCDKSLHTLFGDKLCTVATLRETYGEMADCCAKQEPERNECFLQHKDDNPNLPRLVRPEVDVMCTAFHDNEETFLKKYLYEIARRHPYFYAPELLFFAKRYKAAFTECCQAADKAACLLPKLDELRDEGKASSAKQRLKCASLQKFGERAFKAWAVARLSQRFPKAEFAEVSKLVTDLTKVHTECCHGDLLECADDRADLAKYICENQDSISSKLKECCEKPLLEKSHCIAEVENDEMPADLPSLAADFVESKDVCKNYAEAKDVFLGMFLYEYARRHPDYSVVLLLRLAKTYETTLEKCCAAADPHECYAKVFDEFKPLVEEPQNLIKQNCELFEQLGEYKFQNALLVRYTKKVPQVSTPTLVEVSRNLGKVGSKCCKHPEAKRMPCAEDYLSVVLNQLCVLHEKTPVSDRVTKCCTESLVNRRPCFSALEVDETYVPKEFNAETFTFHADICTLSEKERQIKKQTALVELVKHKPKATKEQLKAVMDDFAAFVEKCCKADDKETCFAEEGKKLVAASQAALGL
- assay-summary: Proton relaxation enhancement (PRE) titrations with HSA
- Format: binding
- applied-conditions: HSA-bound GdL-Zn, from PRE fit
measured-attribute: r1^c (relaxivity of the bound state) (s⁻¹ mM⁻¹)

INSERT INTO measurements (structure_as_smiles, measured_attribute, unit_of_measure, quantitative_readout) VALUES
  ('O=C(O)CN1CCN(CC(=O)O)CCN(CC(=O)NCCN(Cc2ccccn2)Cc2ccccn2)CCN(CC(=O)O)CC1', 'r1^c (relaxivity of the bound state)', 's⁻¹ mM⁻¹', 20),
  ('O=C(O)CN1CCN(CC(=O)O)CCN(CC(=O)NCCN(CCc2ccccn2)Cc2ccccn2)CCN(CC(=O)O)CC1', 'r1^c (relaxivity of the bound state)', 's⁻¹ mM⁻¹', 12),
  ('O=C(O)CN1CCN(CCC(=O)NCCN(CCc2ccccn2)Cc2ccccn2)CCN(CC(=O)O)CCN(CC(=O)O)CC1', 'r1^c (relaxivity of the bound state)', 's⁻¹ mM⁻¹', 12),
  ('O=C(O)CCN1CCN(CC(=O)O)CCN(CC(=O)NCCN(Cc2ccccn2)Cc2ccccn2)CCN(CC(=O)O)CC1', 'r1^c (relaxivity of the bound state)', 's⁻¹ mM⁻¹', 30),
  ('O=C(O)CN1CCN(CCC(=O)NCCN(Cc2ccccn2)Cc2ccccn2)CCN(CC(=O)O)CCN(CC(=O)O)CC1', 'r1^c (relaxivity of the bound state)', 's⁻¹ mM⁻¹', 28);
